Target: Falcipain 2 (Plasmodium falciparum, UniProt Q9N6S8)
Sequence (Q9N6S8 whole entry): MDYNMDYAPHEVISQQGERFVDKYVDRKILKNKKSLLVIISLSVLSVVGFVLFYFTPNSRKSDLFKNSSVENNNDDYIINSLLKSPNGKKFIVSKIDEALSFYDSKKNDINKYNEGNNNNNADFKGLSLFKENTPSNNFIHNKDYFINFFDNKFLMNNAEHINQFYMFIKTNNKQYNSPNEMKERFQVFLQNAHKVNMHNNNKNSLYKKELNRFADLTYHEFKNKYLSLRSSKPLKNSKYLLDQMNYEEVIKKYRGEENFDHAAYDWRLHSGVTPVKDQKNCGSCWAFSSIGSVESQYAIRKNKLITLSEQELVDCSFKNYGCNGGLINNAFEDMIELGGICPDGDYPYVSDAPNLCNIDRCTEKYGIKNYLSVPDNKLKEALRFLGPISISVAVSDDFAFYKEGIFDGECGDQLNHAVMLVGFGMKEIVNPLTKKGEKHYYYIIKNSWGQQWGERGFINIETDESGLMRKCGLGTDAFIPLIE
Test: Inhibition of falcipain activity
reported-endpoint: pIC50
Answers are plain numbers, as −log10 of the molar value.

Reference set (2 entries):
COc1cccc(C2CC3=Nc4ccc(F)cc4S(=O)(=O)C3=C(O)C2)c1 (configuration not stated) : 5.30
COc1cccc(C2CC3=Nc4ccc(F)cc4SC3=C(O)C2)c1 (configuration not stated) : 4.70

Hey, can you go through the list below and give me pIC50 for every item?
1. OC1=C2Sc3cc(F)ccc3N=C2CC(c2ccc(Cl)cc2)C1 (configuration not stated)
2. CC1(C)CC2=Nc3ccc(F)cc3SC2=C(O)C1

[5.30, 4.22]
